# melting point annotations

# annotated cases, reported melting point shown
INSERT INTO measurements (compound_structure, quantity_kind, reported) VALUES
  ('COCCOc1ccc(CCCOC(=O)N2CCOCC2)c(Oc2ncc(C(F)(F)F)cc2Cl)c1', 'melting point', '82.3 to 82.4 °C'),
  ('CCCn1c(=O)c2[nH]c(/C=C/c3ccc(OCOC)c(OC)c3)nc2n(CCC)c1=O', 'melting point', '227 °C'),
  ('O=c1[nH]c2ncc(-c3ccc(-c4nnc[nH]4)cc3)nc2n1CC1CCOCC1', 'melting point', '342 to 345 °C'),
  ('N#Cc1c(N2CCCSCC2)cc[nH]c1=S', 'melting point', '265 to 270 °C'),
  ('O=C(OC1CCN(Cc2ccccc2)CC1)c1ccc(I)cc1', 'melting point', '77 to 78 °C');

(Q) Given the entry COc1cc2c(c(Cl)c1Cl)S(=O)(=O)C(c1ccccc1)=C2C , report its measured melting point.
(A) 197 to 199 °C

(Q) Moving on to O=C(NCc1ccc2c(c1)OCO2)c1ccccc1
(A) 115 to 116 °C

(Q) What do you have for COc1ccc(-n2c(SC)nc3cc(OC)cc(OC)c3c2=O)cc1 ?
(A) 212 to 215 °C

(Q) Also COc1nc(-c2ccccc2)c2c(n1)N(c1c(F)cccc1F)C(=O)NC2 , if possible.
(A) 221 to 224 °C

(Q) Check COc1cc2c(Nc3cccc(Cl)c3F)ncnc2cc1OC1CCN(C(=O)CC(C)(C)O)CC1 too.
(A) 196 to 199 °C

###

Quick reference: melting point of the listed items.

# annotated cases, reported melting point shown
INSERT INTO measurements (compound, reported) VALUES
  ('COc1ccc(C(=O)Nc2ccncc2)c2c1oc1ccc(NC(C)=O)cc12', '267 to 268 °C'),
  ('CCCc1ccnc2c(=O)[nH]c(-c3cc(S(=O)(=O)N4CCNCC4)ccc3OCC)nc12', '178 to 180 °C'),
  ('C=C1CCCc2c(C(=O)OCC)n(C)c3cccc1c23', '45 to 49 °C'),
  ('COc1ccccc1-c1cc(F)cc2c1O[C@@H](CN)CC2', '100 °C'),
  ('CCCCCCCCCCCC/C=C/c1ccc2c(c1)OCO2', '34 to 36 °C');

(Q) Requested field: melting point. Item: COc1ccc(-c2ncc(N(C)CCCCOCC(=O)O)nc2-c2ccc(OC)cc2)cc1
(A) 128 to 130 °C

(Q) Further, for C#CCOc1ccc(Cc2nnc(Cl)c3ccccc23)cc1 ?
(A) 129 to 131 °C

(Q) Input COc1cc(OC)nc(C(C)c2ccccc2NS(=O)(=O)C(F)(F)F)n1 (stereo unspecified)
(A) 132 to 133 °C

(Q) Try the compound Cc1c(O)ccc2c(=O)c(-c3ccccc3O)coc12
(A) 196 to 198 °C

(Q) Cc1ccccc1N(Cc1cccnc1)S(C)(=O)=O ?
(A) 97 to 98 °C

###

Recorded measurements of melting point, one per entry

The cases that follow already have their melting point on record.
INSERT INTO results (compound_structure, quantity_kind, reported) VALUES
  ('CC(N)=CC(=O)NC1CCCC1', 'melting point', '138 to 139 °C'),
  ('Cn1c(C(F)(F)F)cc(=O)n(-c2cc(OCc3ccc(Cl)cc3Cl)c(Cl)cc2F)c1=O', 'melting point', '112 to 120 °C'),
  ('CCOC(=O)c1ncc2[nH]c3ccc(C(=O)N4CCCCC4)cc3c2c1C', 'melting point', '212 to 218 °C'),
  ('Cc1c(CC(=O)OC(OC(=O)Cc2cc(C(C)(C)C)c(O)c(C)c2C)(OC(=O)Cc2cc(C(C)(C)C)c(O)c(C)c2C)C(C)(C)C)cc(C(C)(C)C)c(O)c1C', 'melting point', '159 °C'),
  ('Cc1oc(-c2ccccc2)nc1COc1nn(Cc2ccc(Oc3ccccc3)cc2)cc1C(N)=O', 'melting point', '158 to 159 °C'),
  ('CN1Cc2c(C#Cc3ccccc3Cl)ncn2-c2ccc(F)cc2C1=O', 'melting point', '259 to 261 °C'),
  ('O=C(O)/C=C(/C#Cc1ccccc1)c1ccccc1', 'melting point', '124 to 126 °C'),
  ('CCOC(=O)CCCCCCCC1CC2=C(C1)C(=O)C(OC)=C(OC)C2=O', 'melting point', '39 to 40 °C');

Okay, now this molecule:
(Q) Please give the measured melting point for this molecule: CC(C)(N)Cc1nc2ccccc2[nH]1
(A) 209 to 214 °C
